Experiment: INS-1E beta cell survival under cytokines – luminescence, primary screen (AID 435005);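 note: 0% = cytokine-treated negative control wells and 100% = positive control rescue; higher means more ATP so stronger rescue from cytokine killing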
Conditions: INS-1E cytokine-induced death, ATP luminescence, 48 h; concentration not given here
In all, about 300,000 compounds went through this assay and about 2,400 (0.8%) were called active.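 Rule for the calls: active = Every replicate reaches about 75%, or at least half do and their mean reaches it too (limit read from the data); inconclusive = At least half of replicates reach the limit but their mean does not; inactive = Under half of replicates reach the limit.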 The entries come from a sample that favours actives as a whole.
Labels: yes (1) for active, no (0) for inactive

- COMPOUND: "CCC(=O)c1ccc(OCC(=O)N2CCN(CC(=O)Nc3ccc(C)cc3)CC2)cc1"
  ASSIGNED_CLASS: "no (0)"
- COMPOUND: "CCCCCCCCCCCCn1ccc(=N)cc1"
  ASSIGNED_CLASS: "yes (1)"
- COMPOUND: "COC(=O)C1=C(c2ccc(F)cc2OCc2ccccc2)C[C@@H]2CC[C@H]1N2C(=O)NCc1ccc(OC)c(OC)c1"
  ASSIGNED_CLASS: "no (0)"
- COMPOUND: "C[C@]12CCC3C(CC[C@H]4C[C@@H](O)CC[C@]34C)C1CC[C@@H]2O (stereo not given in full)"
  ASSIGNED_CLASS: "no (0)"
- COMPOUND: "O=C1C2(Cl)C3(Cl)C4(Cl)C(Cl)(Cl)C5(Cl)C3(Cl)C1(Cl)C5(Cl)C24Cl (stereo not given)"
  ASSIGNED_CLASS: "no (0)"

meta.source: PubChem BioAssay AID435005
